# experiment: Plasma PK of Compound A after a single 9-hour IV infusion in sleep-deprived healthy male subjects
# Type: in vivo, human
# experimental conditions: male, human, plasma, iv, 44 mg, 44 mg 9-h IV infusion; 9 h post infusion start; read-out: Plasma concentration (GM)
quantity: concentration at 9 h
Include the unit right after the number.

Input line: Request the reported concentration at 9 h associated with COC(=O)N1CCC[C@H](NS(C)(=O)=O)[C@@H]1CO[C@H]1CC[C@@H](c2ccccc2)CC1
Output line: 0.102 µg/mL

###

# experiment: Single-dose plasma PK of Compound A in subjects with OSA
# Type: in vivo, human
# experimental conditions: human, intravenous; 112 mg single dose, subjects with OSA, plasma, mean (PK set)
quantity: Cmax

Input line: Request the reported Cmax associated with COC(=O)N1CCC[C@H](NS(C)(=O)=O)[C@@H]1CO[C@H]1CC[C@@H](c2ccccc2)CC1 [Compound A]
Output line: 230 ng/mL

###

# experiment: Multiple-dose plasma PK of IV Compound A in patients with NT2
# Format: in vivo, human
# experimental conditions: human, plasma, intravenous, 44 mg, Cmpd A 44 mg; Day 7; read-out: Vss Mean
quantity: Vd (L)
Respond numerically; units are L and should not be typed.

Input line: Request the reported Vd associated with COC(=O)N1CCC[C@H](NS(C)(=O)=O)[C@@H]1CO[C@H]1CC[C@@H](c2ccccc2)CC1
Output line: 114

###

# experiment: Plasma PK of Compound A after a single 9-hour IV infusion in sleep-deprived healthy male subjects
# Format: in vivo, human
# experimental conditions: male, human, plasma, iv, 112 mg, 112 mg [HD] single 9-hour IV infusion; read-out: AUC∞ (GM)
quantity: AUC(0-inf) (ng·h/mL)
Respond numerically; units are ng·h/mL and should not be typed.

Input line: Request the reported AUC(0-inf) associated with COC(=O)N1CCC[C@H](NS(C)(=O)=O)[C@@H]1CO[C@H]1CC[C@@H](c2ccccc2)CC1
Output line: 2360

###

# experiment: Plasma PK of Compound A after a single 9-hour IV infusion in sleep-deprived healthy male subjects
# Type: in vivo, human
# experimental conditions: male, human, plasma, iv, 44 mg, 44 mg [LD] single 9-hour IV infusion; read-out: Vz (Median)
quantity: Vd (L)
Respond numerically; units are L and should not be typed.

Input line: Request the reported Vd associated with COC(=O)N1CCC[C@H](NS(C)(=O)=O)[C@@H]1CO[C@H]1CC[C@@H](c2ccccc2)CC1
Output line: 211

###

# experiment: Plasma PK of Compound A after a single 9-hour IV infusion in sleep-deprived healthy male subjects
# Format: in vivo, human
# experimental conditions: male, human, plasma, iv, 44 mg, 44 mg [LD] single 9-hour IV infusion; read-out: AUC∞ (Mean)
quantity: AUC(0-inf) (ng·h/mL)
Respond numerically; units are ng·h/mL and should not be typed.

Input line: Request the reported AUC(0-inf) associated with COC(=O)N1CCC[C@H](NS(C)(=O)=O)[C@@H]1CO[C@H]1CC[C@@H](c2ccccc2)CC1
Output line: 964

###

# experiment: Plasma PK of Compound A after a single 9-hour IV infusion in sleep-deprived healthy male subjects
# Assay type: in vivo, human
# experimental conditions: male, human, plasma, iv, 44 mg, 44 mg [LD] single 9-hour IV infusion; read-out: Cmax (GM)
# Method: This was a phase 1b, single-center, randomized, double-blind, double-dummy, placebo- and active-controlled, 4-period Williams design crossover study to evaluate the PK, PD, and safety of Compound A in sleep-deprived healthy volunteers. Compound A was administered as a 9-hour IV infusion. […] During the day before dosing on Day 1, participants were administered the KSS at scheduled timepoints. […] Subject's vital signs, including BP, were monitored during the dosing and testing period. […]
quantity: Cmax (ng/mL)
Respond numerically; units are ng/mL and should not be typed.

Input line: Request the reported Cmax associated with COC(=O)N1CCC[C@H](NS(C)(=O)=O)[C@@H]1CO[C@H]1CC[C@@H](c2ccccc2)CC1
Output line: 106

###

# experiment: Multiple-dose plasma PK of IV Compound A in patients with NT2
# Assay type: in vivo, human
# experimental conditions: human, plasma, intravenous, 44 mg, Cmpd A 44 mg; 6 Hours Postdose at Day 1
quantity: concentration at 6 h (ng/mL)
Respond numerically; units are ng/mL and should not be typed.

Input line: Request the reported concentration at 6 h associated with COC(=O)N1CCC[C@H](NS(C)(=O)=O)[C@@H]1CO[C@H]1CC[C@@H](c2ccccc2)CC1
Output line: 50

###

# experiment: Multiple-dose plasma PK of IV Compound A in patients with NT2
# Assay type: in vivo, human
# experimental conditions: human, plasma, intravenous, 112 mg, Cmpd A 112 mg; Day 1; read-out: Vz Mean
quantity: Vd (L)
Respond numerically; units are L and should not be typed.

Input line: Request the reported Vd associated with COC(=O)N1CCC[C@H](NS(C)(=O)=O)[C@@H]1CO[C@H]1CC[C@@H](c2ccccc2)CC1
Output line: 299

###

# experiment: Plasma PK of Compound A after a single 9-hour IV infusion in sleep-deprived healthy male subjects
# Type: in vivo, human
# experimental conditions: male, human, plasma, iv, 112 mg, 112 mg 9-h IV infusion; 3 h post infusion end; read-out: Plasma concentration (Median)
quantity: concentration at 3 h (µg/mL)
Respond numerically; units are µg/mL and should not be typed.

Input line: Request the reported concentration at 3 h associated with COC(=O)N1CCC[C@H](NS(C)(=O)=O)[C@@H]1CO[C@H]1CC[C@@H](c2ccccc2)CC1
Output line: 0.054

###

# experiment: Multiple-dose plasma PK of IV Compound A in patients with NT2
# Type: in vivo, human
# experimental conditions: human, plasma, intravenous, 44 mg, Cmpd A 44 mg; Day 1; read-out: AUCtau Geo mean
quantity: AUC (ng·h/mL)
Respond numerically; units are ng·h/mL and should not be typed.

Input line: Request the reported AUC associated with COC(=O)N1CCC[C@H](NS(C)(=O)=O)[C@@H]1CO[C@H]1CC[C@@H](c2ccccc2)CC1 [Compound A]
Output line: 648

###

# experiment: Multiple-dose plasma PK of IV Compound A in patients with NT2
# Format: in vivo, human
# experimental conditions: human, plasma, intravenous, 44 mg, Cmpd A 44 mg; Day 7; read-out: Vz Mean
quantity: Vd (L)
Respond numerically; units are L and should not be typed.

Input line: Request the reported Vd associated with COC(=O)N1CCC[C@H](NS(C)(=O)=O)[C@@H]1CO[C@H]1CC[C@@H](c2ccccc2)CC1
Output line: 258

###

# experiment: Multiple-dose plasma PK of IV Compound A in patients with NT2
# Assay type: in vivo, human
# experimental conditions: human, plasma, intravenous, 112 mg, Cmpd A 112 mg; Day 7; read-out: Vz Mean
quantity: Vd (L)
Respond numerically; units are L and should not be typed.

Input line: Request the reported Vd associated with COC(=O)N1CCC[C@H](NS(C)(=O)=O)[C@@H]1CO[C@H]1CC[C@@H](c2ccccc2)CC1
Output line: 338

###

# experiment: Plasma PK of Compound A after a single 9-hour IV infusion in sleep-deprived healthy male subjects
# Assay type: in vivo, human
# experimental conditions: male, human, plasma, iv, 44 mg, 44 mg [LD] single 9-hour IV infusion; read-out: tmax (Mean)
quantity: Tmax (h)
Respond numerically; units are h and should not be typed.

Input line: Request the reported Tmax associated with COC(=O)N1CCC[C@H](NS(C)(=O)=O)[C@@H]1CO[C@H]1CC[C@@H](c2ccccc2)CC1
Output line: 8.15

###

# experiment: Multiple-dose plasma PK of IV Compound A in patients with NT2
# Type: in vivo, human
# experimental conditions: human, plasma, intravenous, 112 mg, Cmpd A 112 mg; Day 1; read-out: AUCtau Mean
quantity: AUC (ng·h/mL)
Respond numerically; units are ng·h/mL and should not be typed.

Input line: Request the reported AUC associated with COC(=O)N1CCC[C@H](NS(C)(=O)=O)[C@@H]1CO[C@H]1CC[C@@H](c2ccccc2)CC1
Output line: 1520

###

# experiment: Plasma PK of Compound A after a single 9-hour IV infusion in sleep-deprived healthy male subjects
# Format: in vivo, human
# experimental conditions: male, human, plasma, iv, 44 mg, 44 mg [LD] single 9-hour IV infusion; read-out: Vss (Median)
quantity: Vd
Include the unit right after the number.

Input line: Request the reported Vd associated with COC(=O)N1CCC[C@H](NS(C)(=O)=O)[C@@H]1CO[C@H]1CC[C@@H](c2ccccc2)CC1 [Compound A]
Output line: 99.2 L

###

# experiment: Plasma PK of Compound A after a single 9-hour IV infusion in sleep-deprived healthy male subjects
# Format: in vivo, human
# experimental conditions: male, human, plasma, iv, 44 mg, 44 mg 9-h IV infusion; 4 h post infusion start; read-out: Plasma concentration (Median)
quantity: concentration at 4 h (ng/mL)
Respond numerically; units are ng/mL and should not be typed.

Input line: Request the reported concentration at 4 h associated with COC(=O)N1CCC[C@H](NS(C)(=O)=O)[C@@H]1CO[C@H]1CC[C@@H](c2ccccc2)CC1 [Compound A]
Output line: 88.2
